Data origin, for the record: ChEMBL document CHEMBL5329210

System: PANC-1
ASSAY_COMMENT: Inhibition of cell growth of human PANC-1 cells at 25 uM measured after 72 hrs by MTT assay relative to control
Assay type: functional
Task for the reader: assign each of the following compounds its reported inhibition at 25 µM.
Give a bare numeral; the unit % is implied.

Looking for the measured inhibition at 25 µM of O=S(=O)(c1cccc(C(F)(F)F)c1)N1CCN(CCCn2cc(-c3ccc(Br)cc3)nn2)CC1 , can you help?
41

Param item = O=S(=O)(c1cccc(C(F)(F)F)c1)N1CCN(CCCn2cc(-c3ccc(C(F)(F)F)cc3)nn2)CC1 ; retrieve measured inhibition at 25 µM.
60

For the compound Cc1ccc(-c2cn(CCCN3CCN(S(=O)(=O)c4cccc(C(F)(F)F)c4)CC3)nn2)cc1 , what inhibition at 25 µM is on record?
57

Need inhibition at 25 µM, item O=S(=O)(c1ccccc1C(F)(F)F)N1CCN(CCCn2cc(-c3ccc(Br)cc3)nn2)CC1
53

* * *

System: MCF7
ASSAY_COMMENT: Inhibition of cell growth of human MCF7 cells measured after 72 hrs by MTT assay
Type: functional
READOUT_NAME: GI50 (µM)
Supply the numeric figure in µM, leaving out any unit text.

Write down the reported GI50 of COc1ccccc1-c1cn(CCCN2CCN(S(=O)(=O)c3ccc(C(F)(F)F)cc3)CC2)nn1 , test system: MCF7.
0.36

Entry COc1cccc(-c2cn(CCCN3CCN(S(=O)(=O)c4ccc(C(F)(F)F)cc4)CC3)nn2)c1 , system MCF7: what GI50 was measured?
28

Value wanted: GI50 (MCF7) of entry COc1cccc(-c2cn(CCCN3CCN(S(=O)(=O)c4ccc(Br)cc4)CC3)nn2)c1
14

MCF7 / GI50 / COc1cccc(-c2cn(CCCN3CCN(S(=O)(=O)c4ccccc4)CC3)nn2)c1 : value?
35

Please state recorded GI50 (tested on MCF7) of COc1ccc(S(=O)(=O)N2CCN(CCCn3cc(-c4cccc(OC)c4)nn3)CC2)cc1
38

Query for MCF7: what GI50 does the record show for COc1ccc(-c2cn(CCCN3CCN(S(=O)(=O)c4ccc(C(F)(F)F)cc4)CC3)nn2)cc1 ?
6.1

Find the measured GI50: item COc1cccc(-c2cn(CCCN3CCN(S(=O)(=O)c4ccc(C)cc4)CC3)nn2)c1 , target or system MCF7.
33

Which measured GI50 belongs to O=S(=O)(c1ccccc1C(F)(F)F)N1CCN(CCCn2cc(-c3ccc(Br)cc3)nn2)CC1 , tested on MCF7?
9.2

* * *

Tested on: BE(2)-C
ASSAY_COMMENT: Inhibition of cell growth of human BE2C cells at 25 uM measured after 72 hrs by MTT assay relative to control
For each entry below, report its inhibition at 25 µM value.
Reply numerically in %, unit not repeated.

Item under review: CC(=O)Nc1ccc(S(=O)(=O)N2CCN(CCCn3cc(-c4ccc(F)cc4)nn3)CC2)cc1 . Reported inhibition at 25 µM?
38

Recorded inhibition at 25 µM for CC(=O)Nc1ccc(S(=O)(=O)N2CCN(CCCn3cc(-c4ccc(C)cc4)nn3)CC2)cc1 , please?
36

Fill in the blank: the reported inhibition at 25 µM of CC(=O)Nc1ccc(S(=O)(=O)N2CCN(CCCn3cc(-c4cccc(Cl)c4)nn3)CC2)cc1 is ____.
27

* * *

ASSAY_COMMENT: Inhibition of cell growth of human MCF-10A cells measured after 72 hrs by MTT assay
Type: toxicity, cell-based
Would you mind telling me the reported GI50 at 72 h of each entry?
Please state the figure in µM; there is no need to write the unit.

Which GI50 at 72 h is reported for this compound? COc1ccc(-c2cn(CCCN3CCN(S(=O)(=O)c4ccc(C(F)(F)F)cc4)CC3)nn2)cc1
4.9

What measured GI50 at 72 h goes with COc1cccc(-c2cn(CCCN3CCN(S(=O)(=O)c4ccc(C(F)(F)F)cc4)CC3)nn2)c1 ?
39

* * *

System: Capan-2
ASSAY_COMMENT: Inhibition of cell growth of human Capan-2 cells at 25 uM measured after 72 hrs by MTT assay relative to control
Assay type: functional
READOUT_NAME: inhibition at 25 µM (%)
I only need the number, in %, no unit after it.

Field: inhibition at 25 µM (Capan-2). Entry: O=S(=O)(c1ccccc1C(F)(F)F)N1CCN(CCCn2cc(-c3ccc(C(F)(F)F)cc3)nn2)CC1
42

Any idea what inhibition at 25 µM came out for O=S(=O)(c1cccc(C(F)(F)F)c1)N1CCN(CCCn2cc(-c3ccc(C(F)(F)F)cc3)nn2)CC1 on Capan-2?
67

Any idea what inhibition at 25 µM came out for CCc1ccc(-c2cn(CCCN3CCN(S(=O)(=O)c4ccccc4C(F)(F)F)CC3)nn2)cc1 on Capan-2?
25

inhibition at 25 µM of Cc1ccc(-c2cn(CCCN3CCN(S(=O)(=O)c4ccccc4C(F)(F)F)CC3)nn2)cc1 on Capan-2?
42

* * *

Tested on: BE(2)-C
ASSAY_COMMENT: Inhibition of cell growth of human BE2C cells at 25 uM measured after 72 hrs by MTT assay relative to control
Type: functional
READOUT_NAME: inhibition at 25 µM

For the compound shown here, O=S(=O)(c1cccc(C(F)(F)F)c1)N1CCN(CCCn2cc(-c3ccc(Br)cc3)nn2)CC1 , give the reported inhibition at 25 µM.
40%

Looking for the measured inhibition at 25 µM of Cc1ccc(-c2cn(CCCN3CCN(S(=O)(=O)c4ccccc4C(F)(F)F)CC3)nn2)cc1 , can you help?
35%

GET /values?readout=inhibition at 25 µM&item= O=S(=O)(c1ccccc1C(F)(F)F)N1CCN(CCCn2cc(-c3ccc(C(F)(F)F)cc3)nn2)CC1
62%

Endpoint output: inhibition at 25 µM of O=S(=O)(c1ccccc1C(F)(F)F)N1CCN(CCCn2cc(-c3ccc(Br)cc3)nn2)CC1 . Value?
58%

I would be grateful if you could share the reported inhibition at 25 µM for Cc1ccc(-c2cn(CCCN3CCN(S(=O)(=O)c4cccc(C(F)(F)F)c4)CC3)nn2)cc1 .
60%

Return reported inhibition at 25 µM; argument: CCc1ccc(-c2cn(CCCN3CCN(S(=O)(=O)c4ccccc4C(F)(F)F)CC3)nn2)cc1
52%

What does the record list as inhibition at 25 µM for O=S(=O)(c1cccc(C(F)(F)F)c1)N1CCN(CCCn2cc(-c3ccc(C(F)(F)F)cc3)nn2)CC1 ?
61%

Item under review: CCc1ccc(-c2cn(CCCN3CCN(S(=O)(=O)c4cccc(C(F)(F)F)c4)CC3)nn2)cc1 . Reported inhibition at 25 µM?
61%

* * *

Answer each item with its documented inhibition at 72 h, 25 µM.
ASSAY_COMMENT: Inhibition of cell growth of human HPDE cells at 25 uM measured after 72 hrs by CCK8 assay relative to control
Assay type: toxicity, cell-based
I'd appreciate it if you included the unit after the number.

I would be grateful if you could share the reported inhibition at 72 h, 25 µM for COc1cccc(-c2cn(CCCN3CCN(S(=O)(=O)c4ccc(Cl)cc4)CC3)nn2)c1 .
54.3%

Data request, read-out inhibition at 72 h, 25 µM, for COc1ccc(S(=O)(=O)N2CCN(CCCn3cc(-c4cccc(OC)c4)nn3)CC2)cc1
33.9%

Would you kindly share the measured inhibition at 72 h, 25 µM for COc1cccc(-c2cn(CCCN3CCN(S(=O)(=O)c4ccc(Br)cc4)CC3)nn2)c1 ?
32.6%

// lookup inhibition at 72 h, 25 µM for COc1cccc(-c2cn(CCCN3CCN(S(=O)(=O)c4ccc(C(C)C)cc4)CC3)nn2)c1
48.8%

Quick check: inhibition at 72 h, 25 µM of COc1cccc(-c2cn(CCCN3CCN(S(=O)(=O)c4ccc(C(C)(C)C)cc4)CC3)nn2)c1 ?
38.2%

Reported inhibition at 72 h, 25 µM for COc1cccc(-c2cn(CCCN3CCN(S(=O)(=O)c4ccccc4)CC3)nn2)c1 : what is it?
15.8%

// returns reported inhibition at 72 h, 25 µM for input COc1cccc(-c2cn(CCCN3CCN(S(=O)(=O)c4ccc(C(C)=O)cc4)CC3)nn2)c1
30.1%

// query inhibition at 72 h, 25 µM value for entry COc1cccc(-c2cn(CCCN3CCN(S(=O)(=O)c4ccc([N+](=O)[O-])cc4)CC3)nn2)c1
46.5%

Which inhibition at 72 h, 25 µM value is on record for COc1cccc(-c2cn(CCCN3CCN(S(=O)(=O)c4ccc(F)cc4)CC3)nn2)c1 ?
40.8%

inhibition at 72 h, 25 µM for COc1cccc(-c2cn(CCCN3CCN(S(=O)(=O)c4ccc(C(F)(F)F)cc4)CC3)nn2)c1 ?
29%

Please give the measured inhibition at 72 h, 25 µM for this molecule: COc1cccc(-c2cn(CCCN3CCN(S(=O)(=O)c4ccc(C)cc4)CC3)nn2)c1
45%
